B1: Homeobox protein SIX3, residues 212 to 262; numbered along this chain, O95343 (parent)
chain: CFKERTRSLLREWYLQDPYPNPSKKRELAQATGLTPTQVGNWFKNRRQRDR

variants of: B1; assay: abundance fitness (aPCA) (normalised: wild type 0, dead -1); higher = more abundant; growth selection in yeast, the domain comes from the species named; conditions: Homo sapiens
Hi there, I'd appreciate the recorded abundance fitness for every entry that follows.
Numbers only.

Dear colleague, could you please provide abundance fitness for the variants listed below?
1. E27M
2. K25A
3. K24V
4. P22H
5. K24A

Given back:
1: -0.373; 2: -0.326; 3: -0.101; 4: -0.717; 5: 0.11

Reference source: the Human Domainome abundance scans (Beltran et al. 2025)
